Tested on: TSGH
Test: In vitro cytotoxicity against human TSGH
Type: functional, cell-based
IC50 strictly less than 5 µM = YES. Otherwise NO.

• CN(C)CCNC(=O)c1cc(NC(=O)CCCC(=O)Nc2cc(CO)cc(Nc3c4ccccc4nc4ccccc34)c2)cn1C = NO
• CN(C)CCNC(=O)c1cc(NC(=O)c2cc(NC(=O)CCC(=O)Nc3cc(CO)cc(Nc4c5ccccc5nc5ccccc45)c3)cn2C)cn1C = YES
• CN(C)CCNC(=O)c1cc(NC(=O)CCC(=O)Nc2cc(CO)cc(Nc3c4ccccc4nc4ccccc34)c2)cn1C = YES
• CN(C)CCNC(=O)c1cc(NC(=O)c2cc(NC(=O)CCCC(=O)Nc3cc(CO)cc(Nc4c5ccccc5nc5ccccc45)c3)cn2C)cn1C = NO
• CCOC(=O)Nc1cc(COC(=O)CCCC(=O)Nc2cc(C(=O)Nc3cc(C(=O)NCCN(C)C)n(C)c3)n(C)c2)cc(Nc2c3ccccc3nc3ccccc23)c1 = YES
• CCOC(=O)Nc1cc(COC(=O)CCCC(=O)Nc2cc(C(=O)NCCN(C)C)n(C)c2)cc(Nc2c3ccccc3nc3ccccc23)c1 = YES
• Nc1cc(CO)cc(Nc2c3ccccc3nc3ccccc23)c1 = YES
• CN1CCN(c2ccc3nc(-c4ccc5nc(-c6ccc(OCCCC(=O)Nc7cc(CO)cc(Nc8c9ccccc9nc9ccccc89)c7)cc6)[nH]c5c4)[nH]c3c2)CC1 = NO
• CCOC(=O)Nc1cc(COC(=O)CCC(=O)Nc2cc(C(=O)NCCN(C)C)n(C)c2)cc(Nc2c3ccccc3nc3ccccc23)c1 = YES
• CCOC(=O)Nc1cc(CO)cc(Nc2c3ccccc3nc3ccccc23)c1 = YES

Each recorded value in this set is attributed to ChEMBL document CHEMBL1135825.
